- Study system: SIRT1 (Homo sapiens, UniProt Q96EB6)
- Sequence (Q96EB6 1-747): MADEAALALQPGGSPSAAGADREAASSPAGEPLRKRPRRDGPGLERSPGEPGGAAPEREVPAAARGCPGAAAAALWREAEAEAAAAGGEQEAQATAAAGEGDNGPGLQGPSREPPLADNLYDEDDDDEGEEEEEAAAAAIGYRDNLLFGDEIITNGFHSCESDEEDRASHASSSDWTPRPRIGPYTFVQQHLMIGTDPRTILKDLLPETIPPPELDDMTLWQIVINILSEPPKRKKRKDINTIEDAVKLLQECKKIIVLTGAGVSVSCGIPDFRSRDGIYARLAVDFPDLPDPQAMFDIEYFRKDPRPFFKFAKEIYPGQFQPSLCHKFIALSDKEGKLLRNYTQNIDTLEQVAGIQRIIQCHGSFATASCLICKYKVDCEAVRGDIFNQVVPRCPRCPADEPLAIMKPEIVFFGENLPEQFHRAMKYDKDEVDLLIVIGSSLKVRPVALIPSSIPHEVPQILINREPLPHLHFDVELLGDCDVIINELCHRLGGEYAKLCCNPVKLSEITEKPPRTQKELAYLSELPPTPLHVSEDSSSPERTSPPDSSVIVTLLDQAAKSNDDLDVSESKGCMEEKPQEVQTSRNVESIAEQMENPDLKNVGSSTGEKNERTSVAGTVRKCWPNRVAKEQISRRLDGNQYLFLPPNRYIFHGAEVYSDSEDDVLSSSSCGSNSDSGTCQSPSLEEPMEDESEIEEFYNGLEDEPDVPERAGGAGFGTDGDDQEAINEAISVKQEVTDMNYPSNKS
- Assay summary: Trp mass spectrometry assay (SIRT1 activation)
- Assay type: biochemical
- Protocol conditions: concentration of test compound that results in 150% activation of SIRT1; Trp peptide substrate
Endpoint label: Tryp AVG EC1.5 (μM)

Item smiles | Endpoint label | Measurement
Cc1nc(NC(=O)N2c3nc(-c4cncc(F)c4)ccc3N3CCC[C@H]2C3)sc1C | Tryp AVG EC1.5 (μM) | B (EC1.5 1-25 μM)
Cc1cc(-c2ccc3c(n2)N(C(=O)Nc2ccncn2)[C@H]2CCN3C2)ccn1 | Tryp AVG EC1.5 (μM) | B (EC1.5 1-25 μM)
O=C(NCCN1CCOCC1)N1c2nc(-c3cccc(C(F)(F)F)c3)ccc2N2CC[C@H]1C2 | Tryp AVG EC1.5 (μM) | B (EC1.5 1-25 μM)

Data origin: patent US9765075B2
